# Tested on: U251 CNS
# TEST NAME: NCI tumour cell line growth inhibition, 48 h

COMPOUND: COc1cc(NS(=O)(=O)c2ccc(-c3cnc(C4CC4)o3)cc2)ccc1F
LIMIT QUALIFIER: =
TGI / µM: 18.1

COMPOUND: Cc1ccc2c(c1)CN(C(=O)CCC(=O)OCc1ccccc1)c1ccc(C)cc1CN2C(=O)CCC(=O)OCc1ccccc1
LIMIT QUALIFIER: >
TGI / µM: 100

COMPOUND: Cc1ccc(S(=O)(=O)OC(c2ccc(Cl)cc2Cl)C2OC(=O)c3ccccc32)cc1 (configuration not stated)
LIMIT QUALIFIER: >
TGI / µM: 100

COMPOUND: COC(=O)C1C(=O)C=CN([C@H](C)c2ccccc2)[C@@H]1Cc1ccc(OC)c(OCc2ccccc2)c1I (some centres not stated)
LIMIT QUALIFIER: =
TGI / µM: 39.7

COMPOUND: CCCCN1CSC(=S)N(Cc2ccccc2)C1
LIMIT QUALIFIER: >
TGI / µM: 100

COMPOUND: NNc1nncc2n[nH]nc12
LIMIT QUALIFIER: >
TGI / µM: 100

COMPOUND: CC(C)N1CN(C(C(=O)N[C@@H]2C(=O)N3C2SC(C)(C)C3C(=O)O)c2ccccc2)CSC1=S (some centres not stated)
LIMIT QUALIFIER: >
TGI / µM: 100

COMPOUND: CCOC(=O)c1c(C)nc2c(c1N)/C(=C/c1ccc(OC)cc1)C(=O)N2Cc1ccc(F)cc1
LIMIT QUALIFIER: =
TGI / µM: 0.508

COMPOUND: CCNc1cc2c(cc1O)CC[C@@H]1[C@@H]2CC[C@]2(C)[C@@H](O)CC[C@@H]12
LIMIT QUALIFIER: =
TGI / µM: 18.5

COMPOUND: Cc1[nH]n(C2=NCCN2)c(=O)c1Cc1ccccc1
LIMIT QUALIFIER: >
TGI / µM: 100

COMPOUND: CC(C)=CC(=O)C[C@H]1C(=O)O[C@@H]2C[C@H]3C(C)=CC(=O)[C@@H](O)[C@]3(C)[C@H]3[C@@]4(O)OC[C@]32[C@@H]1[C@@H](C)[C@H]4O
LIMIT QUALIFIER: =
TGI / µM: 0.137

COMPOUND: CC(C)(C)c1ccc(O)c(CN(Cc2cc(C(C)(C)C)ccc2O)c2ccccc2)c1
LIMIT QUALIFIER: =
TGI / µM: 28.4

COMPOUND: CCOP(=O)(CN1CCNCCNCC1)OCC
LIMIT QUALIFIER: >
TGI / µM: 100

COMPOUND: CC(=NNC(=S)Nc1ccc(C)cc1)c1cccc(C(C)=NNC(=S)Nc2ccc(C)cc2)n1
LIMIT QUALIFIER: =
TGI / µM: 97

COMPOUND: Cc1ccc(C)c(COCCOCn2ccc(N)nc2=O)c1
LIMIT QUALIFIER: >
TGI / µM: 100

COMPOUND: Cc1ccc(-c2cc(=O)c3cc(C)c(C)c(C(=O)O)c3o2)cc1C
LIMIT QUALIFIER: >
TGI / µM: 100

COMPOUND: Clc1ccc(-c2c(C3=NCCCN3)nnn2-c2ccc(Cl)cc2)cc1
LIMIT QUALIFIER: >
TGI / µM: 75.8

====

# Test system: COLO 205 colon
# TEST NAME: NCI tumour cell line growth inhibition, 48 h; in the data active = GI50 below about 0.43 µM; inactive = the rest
Outcomes: active, inactive

COMPOUND: C/C(=N\Nc1ccc(Cl)cn1)c1ccccn1
ASSIGNED CLASS: active
--
COMPOUND: CCN(CC)CCCC(C)Nc1cnc(C(=O)Nc2cccc3ccc(OC)nc23)cn1 (stereo not given)
ASSIGNED CLASS: inactive
--
COMPOUND: CC[CH2][Sn]([Cl])([Cl])[CH2]CC.Oc1ccccc1C=NCCN=Cc1ccccc1O
ASSIGNED CLASS: inactive
--
COMPOUND: COC(=O)C12C3C4C1C1C2C3C41NC(=O)c1csc([C@@H](C[C@H](C(C)C)N(C)C(=O)[C@@H](NC(=O)[C@H]2CCCCN2C)C2CC2)OC(C)=O)n1 (stereo not given in full)
ASSIGNED CLASS: active
--
COMPOUND: N.N.O=C([O-])P(=O)([O-])[O-].[Na+].[Pt+4]
ASSIGNED CLASS: inactive

====

# System: DMS 114 small cell lung
# TEST NAME: NCI tumour cell line growth inhibition, 48 h
Mark 0 (no) for TGI values under 70 µM, and 1 (yes) for everything at or above.

COMPOUND: COC1=CC2(C=CC1=O)c1cc(OC)c(OC)cc1CCN2C(=O)c1ccccc1 (stereo not given)
ASSIGNED CLASS: 1 (yes)

COMPOUND: Cc1ccc(-c2cc(=O)c3cc(C)c(C)c(C(=O)O)c3o2)cc1C
ASSIGNED CLASS: 1 (yes)

COMPOUND: CC1=N/C(=C\c2cccc([N+](=O)[O-])c2)C(=O)O1
ASSIGNED CLASS: 1 (yes)

COMPOUND: COC(C(O)c1ccc2c(c1)OCO2)P(=O)(c1ccccc1)c1ccccc1 (stereo not given)
ASSIGNED CLASS: 1 (yes)

COMPOUND: C=CC1(C)CCC2=C(CCC3C(C)(C(=O)OC)CCCC23C)C1=O (stereo not given)
ASSIGNED CLASS: 0 (no)

COMPOUND: C=CCc1cc(-c2cc(CC=C)c(O)c(CNCCCl)c2)cc(CNCCCl)c1O
ASSIGNED CLASS: 0 (no)

COMPOUND: CCO/N=C(/N)c1ncn(Cc2ccccc2)c1NCC(OCC)OCC
ASSIGNED CLASS: 1 (yes)

COMPOUND: Clc1ccc(-c2c(C3=NCCCN3)nnn2-c2ccc(Cl)cc2)cc1
ASSIGNED CLASS: 0 (no)

COMPOUND: CCOC(=O)C(Cc1cn(S(=O)(=O)c2ccccc2)c2ccccc12)(NC(C)=O)C(=O)OCC
ASSIGNED CLASS: 1 (yes)

====

# Tested on: CCRF-CEM leukemia
# TEST NAME: NCI tumour cell line growth inhibition, 48 h
Entries annotated with measured TGI

MOLECULE: COC(=O)C(COC(C)=O)NC(=O)/C=C/c1ccc(O)c(OC(C)=O)c1 (stereo not drawn)
TARGET OR SYSTEM: CCRF-CEM leukemia
TGI: > 100 µM
--
MOLECULE: CC(=O)OCCOCn1cnc2c(Cl)nc(Cl)nc21
TARGET OR SYSTEM: CCRF-CEM leukemia
TGI: 23.7 µM
--
MOLECULE: Nc1ncn(C2CC(O)C(CO)O2)c(=O)n1 (stereo not drawn)
TARGET OR SYSTEM: CCRF-CEM leukemia
TGI: > 261 µM

====

# Tested on: HL-60(TB) leukemia
# TEST NAME: NCI tumour cell line growth inhibition, 48 h
RESULT TYPE: TGI (µM)

MOLECULE: CNC(=O)N1CN(c2ccccc2)C2(CCN(CCCC3(c4ccc(F)cc4)OCCO3)CC2)C1=O
TARGET OR SYSTEM: HL-60(TB) leukemia
RESULT TYPE: TGI
LIMIT QUALIFIER: >
EXPERIMENTAL RESULT: 100

MOLECULE: COc1ccc(-c2nnc(COc3ccc(NC(=O)Nc4ccc(Cl)c(C(F)(F)F)c4)cc3F)o2)cc1
TARGET OR SYSTEM: HL-60(TB) leukemia
RESULT TYPE: TGI
LIMIT QUALIFIER: =
EXPERIMENTAL RESULT: 6.12

MOLECULE: CCc1ccc(Nc2ccc([N+](=O)[O-])cc2[N+](=O)[O-])cc1
TARGET OR SYSTEM: HL-60(TB) leukemia
RESULT TYPE: TGI
LIMIT QUALIFIER: >
EXPERIMENTAL RESULT: 100

MOLECULE: c1ccc2c(c1)nc1n2CNC1
TARGET OR SYSTEM: HL-60(TB) leukemia
RESULT TYPE: TGI
LIMIT QUALIFIER: >
EXPERIMENTAL RESULT: 100

MOLECULE: O=C1C=CC=C/C1=C1\N=C(c2ccccc2OCC(=O)c2ccc(Br)cc2)SS1
TARGET OR SYSTEM: HL-60(TB) leukemia
RESULT TYPE: TGI
LIMIT QUALIFIER: >
EXPERIMENTAL RESULT: 100

MOLECULE: CC1ON2CCCC2[C@H]1C(=O)N1C2CC3CCC2(CS1(=O)=O)C3(C)C (stereo partly specified)
TARGET OR SYSTEM: HL-60(TB) leukemia
RESULT TYPE: TGI
LIMIT QUALIFIER: >
EXPERIMENTAL RESULT: 100

MOLECULE: COc1ccc(O)c(/C(C)=N/NC(=S)N(C)C)c1
TARGET OR SYSTEM: HL-60(TB) leukemia
RESULT TYPE: TGI
LIMIT QUALIFIER: >
EXPERIMENTAL RESULT: 100

MOLECULE: CC(=O)O.[Au].c1ccc([PH+](c2ccccc2)c2ccccc2)cc1
TARGET OR SYSTEM: HL-60(TB) leukemia
RESULT TYPE: TGI
LIMIT QUALIFIER: =
EXPERIMENTAL RESULT: 0.266

MOLECULE: CCCS(=O)(=O)/C(=C(\c1ccc(Br)cc1)S(=O)(=O)CCC)c1ccc(Br)cc1
TARGET OR SYSTEM: HL-60(TB) leukemia
RESULT TYPE: TGI
LIMIT QUALIFIER: >
EXPERIMENTAL RESULT: 10

MOLECULE: C/C=C(\C)CC/C=C/CO[Si](C)(C)C(C)(C)C
TARGET OR SYSTEM: HL-60(TB) leukemia
RESULT TYPE: TGI
LIMIT QUALIFIER: =
EXPERIMENTAL RESULT: 52.1

MOLECULE: Cc1cc(=O)n2nc(CN3CCCCC3)sc2n1
TARGET OR SYSTEM: HL-60(TB) leukemia
RESULT TYPE: TGI
LIMIT QUALIFIER: >
EXPERIMENTAL RESULT: 100

MOLECULE: COc1ccc(N2C(=O)C3ON(C(C(N)=O)c4ccccc4)C(c4cc5ccccc5c5ccccc45)C3C2=O)cc1 (stereo unspecified)
TARGET OR SYSTEM: HL-60(TB) leukemia
RESULT TYPE: TGI
LIMIT QUALIFIER: >
EXPERIMENTAL RESULT: 50

MOLECULE: CS(=O)(=O)c1cc(=O)c2ccccc2s1
TARGET OR SYSTEM: HL-60(TB) leukemia
RESULT TYPE: TGI
LIMIT QUALIFIER: =
EXPERIMENTAL RESULT: 6.45

MOLECULE: N#C/C(N)=C(\C#N)N=CN
TARGET OR SYSTEM: HL-60(TB) leukemia
RESULT TYPE: TGI
LIMIT QUALIFIER: >
EXPERIMENTAL RESULT: 100

MOLECULE: CC(=O)N1C/C(=C\c2ccc(N(C)C)cc2)C(=O)/C(=C/c2ccc(N(C)C)cc2)C1
TARGET OR SYSTEM: HL-60(TB) leukemia
RESULT TYPE: TGI
LIMIT QUALIFIER: >
EXPERIMENTAL RESULT: 100

MOLECULE: COC(=O)C(NC(=O)c1ccccc1)c1ccco1 (stereo unspecified)
TARGET OR SYSTEM: HL-60(TB) leukemia
RESULT TYPE: TGI
LIMIT QUALIFIER: >
EXPERIMENTAL RESULT: 100

MOLECULE: O=C1C(Cl)C(c2cccc(Cl)c2)N1c1ccc(-n2c(=S)[nH]c3ccccc3c2=O)cc1 (stereo unspecified)
TARGET OR SYSTEM: HL-60(TB) leukemia
RESULT TYPE: TGI
LIMIT QUALIFIER: =
EXPERIMENTAL RESULT: 52.1

MOLECULE: N#Cc1c(Cl)c2cc([N+](=O)[O-])ccc2n2c1nc1ccccc12
TARGET OR SYSTEM: HL-60(TB) leukemia
RESULT TYPE: TGI
LIMIT QUALIFIER: =
EXPERIMENTAL RESULT: 0.58

MOLECULE: C=C(C)C(=O)OC1CCC2(C)C(CCC3C2CCC2(C)C(c4ccc(=O)oc4)CC4OC432)C1 (stereo unspecified)
TARGET OR SYSTEM: HL-60(TB) leukemia
RESULT TYPE: TGI
LIMIT QUALIFIER: =
EXPERIMENTAL RESULT: 9.64

MOLECULE: C=C1CC[C@@H]2[C@](C)(COC(C)=O)[C@H](OC(C)=O)CC[C@@]2(C)[C@@H]1CC(Nc1ccc(S(=O)(=O)Nc2ncccn2)cc1)C1=CCOC1=O (stereo partly specified)
TARGET OR SYSTEM: HL-60(TB) leukemia
RESULT TYPE: TGI
LIMIT QUALIFIER: =
EXPERIMENTAL RESULT: 3.64

MOLECULE: Clc1ccc(-c2c(C3=NCCCN3)nnn2-c2ccc(Cl)cc2)cc1
TARGET OR SYSTEM: HL-60(TB) leukemia
RESULT TYPE: TGI
LIMIT QUALIFIER: =
EXPERIMENTAL RESULT: 48.1
